assay-notes: Urine levels and urinary recovery in dogs, single intramuscular dose
test-context: dog, urine, im, 25 mg/kg
measurement-kind: concentration at 5 h (µg/mL)

>>> df
                              record_smiles  measured_result
0  CC1(C)S[C@@H]2[C@H](NC(=O)[C@H](NC(=O)CNC(=N)N)c3ccccc3)C(=O)N2[C@H]1C(=O)O              130

---

assay-notes: Urine levels and urinary recovery in dogs, single intramuscular dose
test-context: dog, urine, im, 25 mg/kg
measurement-kind: concentration at 0.5 h (µg/mL)

>>> print(df.to_string())
                              record_smiles  measured_result
0  CC1(C)S[C@@H]2[C@H](NC(=O)[C@H](NC(=O)CNC(=N)N)c3ccccc3)C(=O)N2[C@H]1C(=O)O              366

---

assay-notes: in vivo
test-context: dog, im, 25 mg/kg
measurement-kind: concentration at 2 h (ng/mL)

>>> print(df.to_string())
                              record_smiles  measured_result
0  CC1(C)S[C@@H]2[C@H](NC(=O)[C@H](NC(=O)NC(=N)N)c3ccccc3)C(=O)N2[C@H]1C(=O)O              800

---

assay-notes: Serum levels in dogs, single intramuscular dose
test-context: dog, serum, im, 25 mg/kg
measurement-kind: concentration at 2 h (ng/mL)

>>> df
                              record_smiles      measurement_kind  units_symbol  measured_result
0  CC1(C)S[C@@H]2[C@H](NC(=O)[C@H](NC(=O)CNC(=N)N)c3ccccc3)C(=O)N2[C@H]1C(=O)O  concentration at 2 h         ng/mL            10300

---

assay-notes: Urine levels and urinary recovery in dogs, single intramuscular dose
test-context: dog, urine, im, 25 mg/kg
measurement-kind: concentration at 3 h (µg/mL)

>>> df
                              record_smiles  units_symbol  measured_result
0  CC1(C)S[C@@H]2[C@H](NC(=O)[C@H](NC(=O)CNC(=N)N)c3ccccc3)C(=O)N2[C@H]1C(=O)O         µg/mL              554

---

assay-notes: Urine levels and urinary recovery in dogs, single intramuscular dose
test-context: dog, urine, im, 25 mg/kg
measurement-kind: dose excreted

>>> df
                                   compound  measured_result
0  CC1(C)S[C@@H]2[C@H](NC(=O)[C@H](NC(=O)CNC(=N)N)c3ccccc3)C(=O)N2[C@H]1C(=O)O [A]            35.4%

---

assay-notes: Urine levels and urinary recovery in dogs, single intramuscular dose
test-context: dog, urine, im, 25 mg/kg
measurement-kind: concentration at 4 h (µg/mL)

                                   compound  measured_result
0  CC1(C)S[C@@H]2[C@H](NC(=O)[C@H](NC(=O)CNC(=N)N)c3ccccc3)C(=O)N2[C@H]1C(=O)O [A]              219

---

# MIC per record follows
System: Proteus mirabilis C015
assay-notes: In vitro MIC, Proteus mirabilis C015
Type: cell-based
test-context: unit assumed
Counter-ions that a name gives are not always drawn.
measurement-kind: MIC

compound	measurement-kind	measured-result
CC(C)(C)C(=O)OCOC(=O)[C@@H]1N2C(=O)[C@@H](NC(=O)[C@H](NC(=O)CCNC(=N)N)c3ccccc3)[C@H]2SC1(C)C [CH2 CH2 NH--C(NH)NH2, R=POM, Hydrochloride]	MIC	0.39 µg/mL
CC1(C)S[C@@H]2[C@H](NC(=O)[C@H](N)c3ccccc3)C(=O)N2[C@H]1C(=O)O [D-α-aminobenzylpenicillin, reference compound]	MIC	1.5 µg/mL
CC1(C)S[C@@H]2[C@H](NC(=O)[C@H](NC(=O)CCNC(=N)N)c3ccccc3)C(=O)N2[C@H]1C(=O)O	MIC	0.78 µg/mL
CC1(C)S[C@@H]2[C@H](NC(=O)[C@H](NC(=O)c3ccc(NC(=N)N)cc3)c3ccccc3)C(=O)N2[C@H]1C(=O)O [NH--C(NH)NH2 [1st of 4], R=H]	MIC	3.12 µg/mL
CC1(C)S[C@@H]2[C@H](NC(=O)[C@H](NC(=O)Cc3ccc(NC(=N)N)cc3)c3ccccc3)C(=O)N2[C@H]1C(=O)O [NH--C(NH)NH2 [4th of 4], R=H]	MIC	12.5 µg/mL
CC1(C)S[C@@H]2[C@H](NC(=O)[C@H](NC(=O)CNC3=NCCN3)c3ccccc3)C(=O)N2[C@H]1C(=O)O	MIC	3.12 µg/mL
CC(C)(C)C(=O)OCOC(=O)[C@@H]1N2C(=O)[C@@H](NC(=O)[C@H](NC(=O)CNC(=N)N)c3ccccc3)[C@H]2SC1(C)C [CH2 NH--C(NH)NH2, R=POM, Hydrochloride]	MIC	50 µg/mL
CC1(C)S[C@@H]2[C@H](NC(=O)[C@H](NC(=O)c3cccc(NC(=N)N)c3)c3ccccc3)C(=O)N2[C@H]1C(=O)O [NH--C(NH)NH2 [2nd of 4], R=H]	MIC	6.25 µg/mL
CC1(C)S[C@@H]2[C@H](NC(=O)[C@H](NC(=O)C3CCC(NC(=N)N)CC3)c3ccccc3)C(=O)N2[C@H]1C(=O)O (some centres unmarked) [NH--C(NH)NH2 [3rd of 4], R=H]	MIC	6.25 µg/mL
CN(CC(=O)N[C@@H](C(=O)N[C@@H]1C(=O)N2[C@@H]1SC(C)(C)[C@@H]2C(=O)OCOC(=O)C(C)(C)C)c1ccccc1)C(=N)N [CH2 N(CH3)--C(NH)NH2, R=POM, Hydrochloride]	MIC	12.5 µg/mL
CNC(=N)NCC(=O)N[C@@H](C(=O)N[C@@H]1C(=O)N2[C@@H]1SC(C)(C)[C@@H]2C(=O)O)c1ccccc1	MIC	1.56 µg/mL

---

assay-notes: Serum levels in dogs, single intramuscular dose
test-context: dog, serum, im, 0.05 mg/kg
measurement-kind: concentration at 2 h (ng/mL)

>>> df
                              record_smiles      measurement_kind  measured_result
0  CC1(C)S[C@@H]2[C@H](NC(=O)[C@H](NC(=O)CNC(=N)N)c3ccccc3)C(=O)N2[C@H]1C(=O)O  concentration at 2 h            48000

---

Test system: Proteus vulgaris A059
measurement-kind: MIC (µg/mL)

>>> df
                                   compound  measured_result
0  CC1(C)S[C@@H]2[C@H](NC(=O)[C@H](NC(=O)CCNC(=N)N)c3ccccc3)C(=O)N2[C@H]1C(=O)O [CH2 CH2 NH--C(NH)NH2, R=H]             3.12
1  CC1(C)S[C@@H]2[C@H](NC(=O)[C@H](NC(=O)CNC3=NCCN3)c3ccccc3)C(=O)N2[C@H]1C(=O)O [CH2 NH--.angle..vertline., R=H]             3.12
2  CC1(C)S[C@@H]2[C@H](NC(=O)[C@H](NC(=O)c3cccc(NC(=N)N)c3)c3ccccc3)C(=O)N2[C@H]1C(=O)O [NH--C(NH)NH2 [2nd of 4], R=H]             3.12
3  CNC(=N)NCC(=O)N[C@@H](C(=O)N[C@@H]1C(=O)N2[C@@H]1SC(C)(C)[C@@H]2C(=O)O)c1ccccc1 [CH2 --NH--C(NH)NHCH3, R=H]             3.12
4  CN(CC(=O)N[C@@H](C(=O)N[C@@H]1C(=O)N2[C@@H]1SC(C)(C)[C@@H]2C(=O)O)c1ccccc1)C(=N)N [CH2 N(CH3)--C(NH)NH2, R=H]             6.25
5  CC1(C)S[C@@H]2[C@H](NC(=O)[C@H](NC(=O)CN3CCNC3=N)c3ccccc3)C(=O)N2[C@H]1C(=O)O [CH2 --N--C(NH)--NHCH2 CH2, R=H]             6.25

---

# MIC per entry for Proteus mirabilis C015
measurement-kind: MIC (µg/mL)

>>> print(df.to_string())
                                   compound  measured_result
0  CC1(C)S[C@@H]2[C@H](NC(=O)[C@H](NC(=O)C3CCCN(C(=N)N)C3)c3ccccc3)C(=O)N2[C@H]1C(=O)O (some centres unmarked)             3.12
1  CC1(C)S[C@@H]2[C@H](NC(=O)[C@H](NC(=O)NC(=N)N)c3ccccc3)C(=O)N2[C@H]1C(=O)O             0.78
2  CN(CC(=O)N[C@@H](C(=O)N[C@@H]1C(=O)N2[C@@H]1SC(C)(C)[C@@H]2C(=O)O)c1ccccc1)C(=N)N             6.25
3  CC1(C)S[C@@H]2[C@H](NC(=O)[C@H](NC(=O)CNC(=N)N)c3ccccc3)C(=O)N2[C@H]1C(=O)O             1.56
4  CC1(C)S[C@@H]2[C@H](NC(=O)[C@H](NC(=O)CN3CCNC3=N)c3ccccc3)C(=O)N2[C@H]1C(=O)O             3.12
